Catalogue of IC50 values
# TARGET UNDER TEST: PKMYT1 (Homo sapiens (Human))
# EXPERIMENT DESCRIPTION: In vitro assay: kinase binding to immobilized ligand, captured kinase measured by qPCR

# MOLECULE, RESULT TYPE, EXPERIMENTAL RESULT
rows = [
    ("Cc1c(O)cc(F)c(C)c1-n1c(N)c(C(N)=O)c2cncc(F)c21", "IC50", "< 50 nM"),
]

Param readout = IC50; param system = PKMYT1 (Homo sapiens (Human)); param query = Cc1ccn2c(-c3c(C)ccc(O)c3C)c(N)c(C(N)=O)c2n1 ; response: value
100 to 1000 nM

Param readout = IC50; param system = PKMYT1 (Homo sapiens (Human)); param query = Cc1ccc(O)c(C)c1-n1c(N)c(C(N)=O)c2cnc(N3CC[C@H](O)C3)nc21 ; response: value
< 50 nM

Param readout = IC50; param system = PKMYT1 (Homo sapiens (Human)); param query = Cc1ccc(O)c(C)c1-n1c(N)c(C(N)=O)c2cnc(NCCO)nc21 (atropisomer, axis not shown) [Compound 588] ; response: value
< 50 nM

Param readout = IC50; param system = PKMYT1 (Homo sapiens (Human)); param query = Cc1c(O)cc(F)c(C)c1-n1c(N)c(C(N)=O)c2cnc(C3CC3)c(C#N)c21 ; response: value
< 50 nM

Param readout = IC50; param system = PKMYT1 (Homo sapiens (Human)); param query = Cc1ncc2c(C(N)=O)c(N)n(-c3c(C)c(O)cc(F)c3C)c2n1 [Compound 595] ; response: value
< 50 nM

Param readout = IC50; param system = PKMYT1 (Homo sapiens (Human)); param query = Cc1ccc(O)c(C)c1-n1c(N)c(C(N)=O)c2cncc(F)c21 (atropisomer, axis not shown) ; response: value
< 50 nM

Param readout = IC50; param system = PKMYT1 (Homo sapiens (Human)); param query = Cc1cc2c(C(N)=O)c(N)n(-c3c(C)cc4c(c3C)OCC4)c2nc1C ; response: value
> 1000 nM

* * *

# TARGET UNDER TEST: PKMYT1 (Homo sapiens (Human))
# EXPERIMENT DESCRIPTION: In vitro assay: kinase binding to immobilized ligand, captured kinase measured by qPCR
Catalogue of IC50 values

Worked examples follow.
# COMPOUND, IC50
measured = [
    ("Cc1c(O)cc(F)c(C)c1-n1c(N)c(C(N)=O)c2cc(Cl)cnc21 (single isomer, unassigned) [Compound 576]", "100 to 1000 nM"),
    ("Cc1ccc(O)c(C)c1-n1c(N)c(C(N)=O)c2cnc(C3CC3)c(C#N)c21", "< 50 nM"),
    ("Cc1ccc(O)c(C)c1-n1c(N)c(C(N)=O)c2cnc(CCc3cncs3)c(F)c21", "< 50 nM"),
]

Which IC50 is listed for CCN(CC)c1ncc2c(C(N)=O)c(N)n(-c3c(C)ccc(O)c3C)c2n1 ?
< 50 nM

Which IC50 is listed for Cc1ccc(O)c(C)c1-n1c(N)c(C(N)=O)c2cnc(S(C)(=O)=O)nc21 ?
< 50 nM

* * *

# TARGET UNDER TEST: PKMYT1 (Homo sapiens (Human), UniProt Q99640)
# Sequence (Q99640 whole entry): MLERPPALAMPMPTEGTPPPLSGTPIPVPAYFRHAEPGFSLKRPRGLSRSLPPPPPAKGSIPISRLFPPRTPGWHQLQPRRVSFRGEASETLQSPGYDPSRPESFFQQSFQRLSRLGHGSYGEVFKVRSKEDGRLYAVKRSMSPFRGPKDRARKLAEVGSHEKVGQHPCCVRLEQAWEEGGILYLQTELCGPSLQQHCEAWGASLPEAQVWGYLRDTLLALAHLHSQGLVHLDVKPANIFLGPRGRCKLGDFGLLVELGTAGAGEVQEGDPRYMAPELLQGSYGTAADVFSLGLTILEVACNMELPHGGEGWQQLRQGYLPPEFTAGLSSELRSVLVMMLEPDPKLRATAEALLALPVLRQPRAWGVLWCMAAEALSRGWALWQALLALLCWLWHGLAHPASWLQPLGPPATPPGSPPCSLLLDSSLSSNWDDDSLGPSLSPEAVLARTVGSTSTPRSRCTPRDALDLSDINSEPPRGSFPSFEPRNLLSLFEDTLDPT
# EXPERIMENT DESCRIPTION: In vitro assay: kinase binding to immobilized ligand, captured kinase measured by qPCR
RESULT TYPE: IC50

Worked examples follow.
# COMPOUND, EXPERIMENTAL RESULT
rows = [
    ("Cc1ccc(O)c(C)c1-n1c(N)c(C(N)=O)c2cnc(Cl)nc21", "< 50 nM"),
    ("Cc1ccc(O)c(C)c1-n1c(N)c(C(N)=O)c2cnc(N[C@H]3CCC[C@@H]3O)nc21", "< 50 nM"),
    ("Cc1ccc(O)c(C)c1-n1c(N)c(C(N)=O)c2cnc(/C=C/C3CC3)nc21", "< 50 nM"),
]

Param readout = IC50; param system = PKMYT1 (Homo sapiens (Human), UniProt Q99640); param query = Cc1ccc(O)c(C)c1-n1c(N)c(C(N)=O)c2cnc(NCCO)nc21 [Compound 559] ; response: value
< 50 nM

Param readout = IC50; param system = PKMYT1 (Homo sapiens (Human), UniProt Q99640); param query = Cc1ccc(O)c(C)c1-n1c(N)c(C(N)=O)c2cc3c(nc21)CCN3 ; response: value
< 50 nM

Param readout = IC50; param system = PKMYT1 (Homo sapiens (Human), UniProt Q99640); param query = Cc1cnc2c(c1)c(C(N)=O)c(N)n2-c1c(C)ccc(O)c1N ; response: value
< 50 nM

Param readout = IC50; param system = PKMYT1 (Homo sapiens (Human), UniProt Q99640); param query = Cc1ccc(O)c(C)c1-c1c(N)c(C(N)=O)c2nccc(C)n12 ; response: value
100 to 1000 nM

* * *

Catalogue of IC50 values
# TARGET UNDER TEST: UniProtKB P06239
# Sequence (P06239 whole entry): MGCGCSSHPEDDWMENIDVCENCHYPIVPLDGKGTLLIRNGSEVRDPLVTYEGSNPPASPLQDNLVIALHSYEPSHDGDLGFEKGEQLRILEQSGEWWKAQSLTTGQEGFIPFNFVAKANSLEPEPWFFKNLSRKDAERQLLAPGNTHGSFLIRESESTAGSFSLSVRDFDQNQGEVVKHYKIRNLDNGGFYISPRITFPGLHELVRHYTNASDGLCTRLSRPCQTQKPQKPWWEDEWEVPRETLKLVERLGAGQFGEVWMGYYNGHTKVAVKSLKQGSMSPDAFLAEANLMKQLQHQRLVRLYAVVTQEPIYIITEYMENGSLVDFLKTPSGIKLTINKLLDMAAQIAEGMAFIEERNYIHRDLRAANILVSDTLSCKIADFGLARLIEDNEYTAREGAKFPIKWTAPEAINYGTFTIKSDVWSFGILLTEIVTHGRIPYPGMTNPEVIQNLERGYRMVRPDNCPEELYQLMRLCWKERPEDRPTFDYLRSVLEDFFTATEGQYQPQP
# EXPERIMENT DESCRIPTION: In vitro assay: kinase binding to immobilized ligand, captured kinase measured by qPCR

Worked examples follow.
# MOLECULE, RESULT TYPE, EXPERIMENTAL RESULT
rows = [
    ("Cc1ncc2c(C(N)=O)c(N)n(-c3c(C)c(O)cc(F)c3C)c2n1 (atropisomer, axis not shown) [Compound 606]", "IC50", "< 50 nM"),
    ("Cc1ccc(O)c(C)c1-n1c(N)c(C(N)=O)c2cnc(NCCO)nc21", "IC50", "< 50 nM"),
    ("Cc1c(O)cc(F)c(C)c1-n1c(N)c(C(N)=O)c2cnc(C3CC3)nc21 (atropisomer, axis not shown)", "IC50", "< 50 nM"),
    ("Cc1ncc2c(C(N)=O)c(N)n(-c3c(C)cc4[nH]c(=O)oc4c3C)c2n1", "IC50", "> 1000 nM"),
    ("Cc1c(O)cc(F)c(C)c1-n1c(N)c(C(N)=O)c2cnc(C3CC3)c(C#N)c21", "IC50", "< 50 nM"),
    ("Cc1ncc(O)c(C)c1-n1c(N)c(C(N)=O)c2cc(Cl)cnc21", "IC50", "100 to 1000 nM"),
]

Param readout = IC50; param system = UniProtKB P06239; param query = Cc1ncc2c(C(N)=O)c(N)n(-c3c(C)cc(F)c(O)c3C)c2n1 ; response: value
100 to 1000 nM

* * *

Catalogue of IC50 values
# TARGET UNDER TEST: PKMYT1 (Homo sapiens (Human), UniProt Q99640)
# EXPERIMENT DESCRIPTION: In vitro assay: kinase binding to immobilized ligand, captured kinase measured by qPCR

Worked examples follow.
# COMPOUND, RESULT TYPE, EXPERIMENTAL RESULT
data = [
    ("Cc1ccc(O)c(C)c1-n1c(N)c(C(N)=O)c2cnc(C#CC3CC3)nc21 [Compound 621]", "IC50", "< 50 nM"),
    ("Cc1ccc(O)c(C)c1-n1c(N)c(C(N)=O)c2cc3c(nc21)OCCN3C [Compound 568]", "IC50", "< 50 nM"),
    ("Cc1ccc(O)c(C)c1-n1c(N)c(C(N)=O)c2cncnc21 [Compound 547]", "IC50", "< 50 nM"),
    ("Cc1ccc(O)c(C)c1-n1c(N)c(C(N)=O)c2cnc(N3CC[C@@H](O)C3)nc21 [Compound 583]", "IC50", "< 50 nM"),
]

Which IC50 is listed for Cc1ccc(O)c(C)c1-n1c(N)c(C(N)=O)c2cncnc21 (single isomer, unassigned) [Compound 571] ?
100 to 1000 nM

Which IC50 is listed for CCc1c(O)cc(F)c(C)c1-n1c(N)c(C(N)=O)c2cnc(C3CC3)c(C#N)c21 [Compound 673] ?
< 50 nM

Which IC50 is listed for Cc1ccc(O)c(C)c1-n1c(N)c(C(N)=O)c2cnc(C#Cc3ccc(F)cc3)c(F)c21 [Compound 622] ?
50 to 100 nM

* * *

Catalogue of IC50 values
# TARGET UNDER TEST: PKMYT1 (Homo sapiens (Human))
# EXPERIMENT DESCRIPTION: In vitro assay: kinase binding to immobilized ligand, captured kinase measured by qPCR

Worked examples follow.
# COMPOUND, TARGET UNDER TEST, IC50
records = [
    ("Cc1ccc(O)c(C)c1-n1c(N)c(C(N)=O)c2cnc(N3CC(O)C3)nc21", "PKMYT1 (Homo sapiens (Human))", "< 50 nM"),
    ("Cc1ncc2c(C(N)=O)c(N)n(-c3c(C)c(O)cc(F)c3C)c2n1 (atropisomer, axis not shown) [Compound 607]", "PKMYT1 (Homo sapiens (Human))", "> 1000 nM"),
    ("CCc1c(O)cc(F)c(C)c1-n1c(N)c(C(N)=O)c2cnc(C)nc21", "PKMYT1 (Homo sapiens (Human))", "< 50 nM"),
    ("Cc1ncc2c(C(N)=O)c(N)n(-c3c(C)cc4[nH]c(=O)oc4c3C)c2n1", "PKMYT1 (Homo sapiens (Human))", "> 1000 nM"),
    ("Cc1ccc(O)c(C)c1-n1c(N)c(C(N)=O)c2cnc(CCc3cscn3)c(F)c21", "PKMYT1 (Homo sapiens (Human))", "< 50 nM"),
    ("Cc1ccc(O)c(C)c1-n1c(N)c(C(N)=O)c2cnc(C#CC(F)(F)F)nc21", "PKMYT1 (Homo sapiens (Human))", "50 to 100 nM"),
    ("Cc1c(O)cc(F)c(C)c1-n1c(N)c(C(N)=O)c2cc(Cl)cnc21 [Compound 565]", "PKMYT1 (Homo sapiens (Human))", "< 50 nM"),
    ("Cc1cc2ccoc2c(C)c1-n1c(N)c(C(N)=O)c2cc(Cl)cnc21", "PKMYT1 (Homo sapiens (Human))", "> 1000 nM"),
    ("Cc1nc(C)c2c(C(N)=O)c(N)n(-c3c(C)ccc(O)c3C)c2n1", "PKMYT1 (Homo sapiens (Human))", "< 50 nM"),
]

Which IC50 is listed for Cc1ccc(O)c(C)c1-n1c(N)c(C(N)=O)c2cncc(C#N)c21 ?
< 50 nM

Provenance of the data: patent US20250388583A1
